Listed here: items and their measured IC50.
Test system: human lung cancer strain NCI-H441
Type: cell-based

{"columns": ["substance smiles", "target or test system", "IC50 / nM"],
 "data": [
  ["CC[C@H](C)[C@@H]1NC(=O)[C@@H]2CCCc3ccc(cc3)C[C@@H](C(=O)N(C)CC(=O)N[C@@H](CCc3ccc(C(F)(F)F)c(OC)c3)C(=O)N3C[C@H](OC4CCCC4)C[C@H]3C(=O)NC3(CC(C)(C)C3)C(=O)N(C)[C@@H](C3CCCC3)C(=O)N(C)[C@H](C(=O)N(C)CC)CC(=O)N2C)N2CC/C=C\\C[C@@H](C2=O)N(C)C(=O)CN(C)C1=O", "human lung cancer strain NCI-H441", 7.9],
  ["CCCN(C)C(=O)[C@@H]1CC(=O)N(C)[C@@H](CC(F)F)C(=O)N[C@@H]([C@@H](C)CC)C(=O)N(C)CC(=O)N(C)[C@H]2C/C=C\\CCN(C2=O)[C@@H](Cc2ccc(C(F)(F)F)cc2)C(=O)N(C)CC(=O)N[C@@H](CCc2cc(F)c(C(F)(F)F)c(F)c2)C(=O)N2C[C@@H](C)C[C@H]2C(=O)NC2(CCC2)C(=O)N(C)[C@@H](C2CCCC2)C(=O)N1C", "human lung cancer strain NCI-H441", 17.7]
]}
